# TARGET_UNDER_TEST: GPR43 (Homo sapiens)
# Construct: expressed in transfected cells
# Sequence (O15552 1-330): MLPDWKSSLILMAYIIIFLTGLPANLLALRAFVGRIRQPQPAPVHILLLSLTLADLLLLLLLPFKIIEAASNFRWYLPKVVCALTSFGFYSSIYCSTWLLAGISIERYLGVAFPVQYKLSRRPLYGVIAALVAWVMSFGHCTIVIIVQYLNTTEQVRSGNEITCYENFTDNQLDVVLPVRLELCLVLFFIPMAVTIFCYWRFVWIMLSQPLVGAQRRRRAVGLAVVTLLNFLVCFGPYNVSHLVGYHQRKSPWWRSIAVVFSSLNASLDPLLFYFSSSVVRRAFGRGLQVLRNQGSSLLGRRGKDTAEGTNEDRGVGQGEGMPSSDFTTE
# EXPERIMENT_SUMMARY: Calcium mobilization assay with probenecid
# Format: cell-based
# COND: GPR43 stably expressing cells; triggered with sodium acetate at EC80; 2.5 mM probenecid; read-out: GPR43 assay with probenicid IC50
pIC50: −log10 of the molar value.
Each entry below lists one item and its recorded pIC50 value.
OBSERVABLE: pIC50

INSERT INTO results (compound, result) VALUES
  ('CC1(C(=O)N(CCCC(=O)O)c2cccc(C(F)(F)F)c2)CCN1C(=O)c1csc2ccccc12 (stereo not drawn)', '6.30 to 7.00'),
  ('CC1(C(=O)N(CCCC(=O)O)Cc2ccc(Cl)cc2)CCN1C(=O)Oc1ccc(C(F)(F)F)cc1 (stereo not drawn)', '< 6.00'),
  ('CNS(=O)(=O)CCCN(Cc1cccc(Cl)c1)C(=O)C1(C)CCN1C(=O)c1csc2ccccc12 (stereo not drawn)', '7.00 to 11.00'),
  ('Cc1cc(C)cc(CC(=O)N2CCC2(C)C(=O)N(CCCC(=O)N(C)C)Cc2ccc(Cl)cc2)c1 (stereo not drawn)', '< 6.00'),
  ('CNC(=O)CN(Cc1ccc(Cl)cc1)C(=O)C1(C)CCN1C(=O)Cc1cc(C)cc(C)c1 (stereo not drawn)', '6.30 to 7.00'),
  ('CC1(C(=O)N(CCCC(=O)O)Cc2ccc(Cl)cc2)CCN1C(=O)c1csc2ccccc12 (stereo not drawn)', '7.00 to 11.00'),
  ('CC1(C(=O)N(CCCC(=O)O)Cc2ccc(Cl)cc2)CCN1C(=O)Oc1ccccc1F (stereo not drawn)', '< 6.00'),
  ('Cc1cc(C)cc(CC(=O)N2CCC2(C)C(=O)N(Cc2ccc(Cl)cc2)Cc2noc(O)n2)c1 (stereo not drawn)', '6.00 to 6.30'),
  ('CC1(C(=O)N(CCCS(N)(=O)=O)Cc2cccc(Cl)c2)CCN1C(=O)c1csc2ccccc12 (stereo not drawn)', '7.00 to 11.00'),
  ('Cc1cc(C)cc(CC(=O)N2CCC2(C)C(=O)N(C)Cc2cccc(Cl)c2)c1 (stereo not drawn)', '< 6.00'),
  ('CC1(C(=O)N(CCCC(=O)O)Cc2ccc3cn[nH]c3c2)CCN1C(=O)c1csc2ccccc12 (stereo not drawn)', '6.30 to 7.00'),
  ('CC1(C(=O)N(CCCC(=O)O)Cc2ccc(Cl)cc2)CCN1C(=O)Oc1cc(C(F)(F)F)ccc1Cl (stereo not drawn)', '< 6.00');

---

# TARGET_UNDER_TEST: GPR43 (Homo sapiens)
# Construct: expressed in transfected cells
# EXPERIMENT_SUMMARY: Calcium mobilization assay with probenecid
# Assay type: cell-based
# COND: GPR43 stably expressing cells; triggered with sodium acetate at EC80; 2.5 mM probenecid; read-out: GPR43 assay with probenicid IC50
Each entry below lists one item and its recorded IC50 value.
OBSERVABLE: IC50

INSERT INTO measurements (molecule, result) VALUES
  ('CC1(C(=O)N(CCC(=O)O)Cc2ccc(Cl)cc2)CCN1C(=O)Cc1csc2ccccc12 (stereo not shown)', '101 to 500 nM'),
  ('C=CCC1(C(=O)N(CCCC(=O)NS(C)(=O)=O)Cc2cccc(Cl)c2)CCN1C(=O)c1csc2ccccc12 (stereo not shown)', '0.01 to 100 nM'),
  ('CC[C@@]1(C(=O)N(CCCS(N)(=O)=O)[C@@H](C)c2ccc(Cl)cc2)CCN1C(=O)c1csc2ccccc12', '101 to 500 nM'),
  ('CC1(C(=O)N(CCCC(=O)NS(C)(=O)=O)c2ccc(Cl)cc2)CCN1C(=O)c1csc2ccccc12 (stereo not shown)', '0.01 to 100 nM'),
  ('Cc1cc(C)cc(CC(=O)N2CCC2(C)C(=O)N(CCCC(=O)O)Cc2ccc3cn[nH]c3c2)c1 (stereo not shown)', '101 to 500 nM'),
  ('CC(C)C1(C(=O)N(CCCS(N)(=O)=O)Cc2cccc(Cl)c2)CCN1C(=O)c1csc2ccccc12 (stereo not shown)', '101 to 500 nM'),
  ('Cc1cc(C)cc(CC(=O)N2CCC2(C)C(=O)N(C)Cc2ccc(C(C)(C)C)cc2)c1 (stereo not shown)', '> 1000 nM');

---

# TARGET_UNDER_TEST: GPR43 (Homo sapiens)
# Construct: expressed in transfected cells
# EXPERIMENT_SUMMARY: Calcium mobilization assay with probenecid
# Format: cell-based
# COND: GPR43 stably expressing cells; triggered with sodium acetate at EC80; 2.5 mM probenecid; read-out: GPR43 assay with probenicid IC50
OBSERVABLE: IC50

INSERT INTO assay_data (compound, result) VALUES
  ('CC(=O)NCCN(Cc1ccc(Cl)cc1)C(=O)C1(C)CCN1C(=O)Cc1cc(C)cc(C)c1 (stereo not shown)', '0.101 to 0.5 µM'),
  ('Cc1ccccc1-c1ccc(CC(=O)N2CCC2(C)C(=O)N(C)Cc2ccc(Cl)cc2)cc1 (stereo not shown)', '> 1 µM'),
  ('Cc1cc(C)cc(CC(=O)N2CCC2(C)C(=O)N(C)Cc2ccc(Br)cc2)c1 (stereo not shown)', '> 1 µM'),
  ('Cc1cc(C)cc(CC(=O)N2CC[C@]2(C)C(=O)N(CC(=O)O)Cc2ccc(Cl)cc2)c1', '0.101 to 0.5 µM'),
  ('Cc1cc(C)cc(CC(=O)N2CCC2(C)C(=O)N(CC(N)=O)Cc2ccc(Cl)cc2)c1 (stereo not shown)', '0.101 to 0.5 µM'),
  ('Cc1cc(C)cc(CC(=O)N2CCC2(C)C(=O)N(CCCC(=O)N2CCOCC2)Cc2ccc(Cl)cc2)c1 (stereo not shown)', '0.101 to 0.5 µM'),
  ('CCOC(=O)CCCN(Cc1ccc(C(F)(F)F)cc1)C(=O)C1(C)CCN1C(=O)c1csc2ccccc12 (stereo not shown)', '> 1 µM');

---

# TARGET_UNDER_TEST: GPR43 (Homo sapiens)
# Construct: expressed in transfected cells
# EXPERIMENT_SUMMARY: Calcium mobilization assay without probenecid
# Format: cell-based
# COND: GPR43 stably expressing cells, triggered with sodium acetate at EC80, read-out: GPR43 assay without probenicid IC50
pIC50: −log10 of the molar value.
Each entry below lists one item and its recorded pIC50 value.
OBSERVABLE: pIC50

INSERT INTO assay_data (compound, observable, result) VALUES
  ('Cc1ccc(CN(C)C(=O)C2(C)CCN2C(=O)Cc2cc(C)cc(C)c2)cc1 (centres unmarked)', 'pIC50', '6.00 to 6.30'),
  ('CC1(C(=O)NCc2ccc(Cl)cc2)CCN1C(=O)Cc1ccc(Cl)cc1Cl (centres unmarked)', 'pIC50', '6.30 to 7.00'),
  ('CN(Cc1ccc(Cl)cc1)C(=O)C1(C)CCN1C(=O)Cc1ccc(-c2ccc(F)cc2)cc1 (centres unmarked)', 'pIC50', '< 6.00'),
  ('CN(Cc1ccc(Cl)cc1)C(=O)C1(C)CCN1C(=O)Cc1ccc(F)c(F)c1 (centres unmarked)', 'pIC50', '< 6.00'),
  ('CNC(=O)CN(Cc1ccc(Cl)cc1)C(=O)C1(C)CCN1C(=O)Cc1cc(C)cc(C)c1 (centres unmarked)', 'pIC50', '6.30 to 7.00'),
  ('CN(Cc1ccc(Cl)cc1)C(=O)C1(C)CCN1C(=O)Cc1ccc(Cl)cc1 (centres unmarked)', 'pIC50', '< 6.00'),
  ('Cc1cc(C)cc(CC(=O)N2CCC2(C)C(=O)N(C)Cc2ccc(Br)cc2)c1 (centres unmarked)', 'pIC50', '< 6.00'),
  ('CCOC(=O)CN(Cc1ccc(Cl)cc1)C(=O)C1(C)CCN1C(=O)Cc1csc2ccccc12 (centres unmarked)', 'pIC50', '6.30 to 7.00'),
  ('Cc1cc(C)cc(CC(=O)N2CCC2(C)C(=O)N(CC(=O)NS(=O)(=O)C(F)(F)F)Cc2ccc(Cl)cc2)c1 (centres unmarked)', 'pIC50', '< 6.00'),
  ('Cc1cc(C)cc(CC(=O)N2CCC2(C)C(=O)N(CCC(=O)O)Cc2ccc(Cl)cc2)c1 (centres unmarked)', 'pIC50', '< 6.00'),
  ('CC1(C(=O)NCc2ccc(Cl)cc2)CCN1C(=O)Cc1csc2ccccc12 (centres unmarked)', 'pIC50', '< 6.00'),
  ('Cc1cc(C)cc(CC(=O)N2CCC2(C)C(=O)N(CCO)Cc2ccc(Cl)cc2)c1 (centres unmarked)', 'pIC50', '6.30 to 7.00'),
  ('COC(=O)c1cccc(-c2ccc(CC(=O)N3CCC3(C)C(=O)N(C)Cc3ccc(Cl)cc3)cc2)c1 (centres unmarked)', 'pIC50', '< 6.00'),
  ('CN(Cc1ccc(Cl)cc1)C(=O)C1(C)CCN1C(=O)Cc1ccc(-c2cccc(Cl)c2)cc1 (centres unmarked)', 'pIC50', '< 6.00'),
  ('Cc1cccc(CNC(=O)C2(C)CCN2C(=O)Cc2ccc(Cl)cc2Cl)c1 (centres unmarked)', 'pIC50', '< 6.00'),
  ('Cc1cc(C)cc(CC(=O)N2CCC2(C)C(=O)N(CC(=O)O)Cc2ccc(Cl)cc2)c1 (centres unmarked)', 'pIC50', '6.30 to 7.00'),
  ('CC1(C(=O)N(CC(=O)O)Cc2ccc(Cl)cc2)CCN1C(=O)Cc1coc2ccccc12 (centres unmarked)', 'pIC50', '6.30 to 7.00'),
  ('Cc1cc(C)cc(CC(=O)N2CCC2(C)C(=O)N(C)Cc2ccc(C(C)C)cc2)c1 (centres unmarked)', 'pIC50', '6.00 to 6.30'),
  ('COc1ccc(-c2ccc(CC(=O)N3CCC3(C)C(=O)N(C)Cc3ccc(Cl)cc3)cc2)cc1 (centres unmarked)', 'pIC50', '< 6.00'),
  ('CN(Cc1ccc(Cl)cc1)C(=O)C1(C)CCN1C(=O)Cc1cccc(-c2ccccc2C(F)(F)F)c1 (centres unmarked)', 'pIC50', '< 6.00'),
  ('CC1(C(=O)N(CCC(=O)O)Cc2ccc(Cl)cc2)CCN1C(=O)Cc1csc2ccccc12 (centres unmarked)', 'pIC50', '6.30 to 7.00'),
  ('Cc1cc(C)cc(CC(=O)N2CCC2(C)C(=O)N(C)Cc2ccc(C)cc2C)c1 (centres unmarked)', 'pIC50', '6.00 to 6.30'),
  ('Cc1c(C(=O)N2CCC2(C)C(=O)N(C)Cc2ccc(Cl)cc2)oc2ccccc12 (centres unmarked)', 'pIC50', '< 6.00');
